Data origin, for the record: patent US4497826A

Assay explanation: acute toxicity (LD50) in mice
Particulars: mouse, in vivo, po
Outcome measure: LD50

So what's the measured LD50 for this one? N[C@H](C(=O)O)[C@H](O)c1ccc(O)c(O)c1 (relative stereo) [threo-DOPS, threo-3,4-dihydroxyphenylserine]
> 10000 mg/kg

###

Assay explanation: acute toxicity (LD50) in mice
Particulars: mouse, in vivo, ip
Outcome measure: LD50

So what's the measured LD50 for this one? N[C@H](C(=O)O)[C@H](O)c1ccc(O)c(O)c1 (relative stereo) [threo-DOPS, threo-3,4-dihydroxyphenylserine]
~10000 mg/kg
